FYI, the data here is from the supplement of paper PMC9170038.

Tested on: K4 kissing-loop RNA reporter
method: apparent KD of K4 kissing-loop reporter; higher = weaker reporter binding
measurementConditions: Eterna round: R107; input ligand: FMN 200 uM
Ranges used to classify apparent KD of K4 kissing-loop reporter: group 1 = under 300 nM, group 2 = from 300 nM up to 500 nM, group 3 = 500 nM and over

Would you please look over these solved cases?
sequenceContent: GCAGUGAUGUUGCACGAGUAGGCUGGAGUACGAGGACCGGUACGGCCGCCACUCGUACGAAAGUCGCUAAUUUAUGGAAUGGUGA [#07 K4 Tryptophan A Same State]
targetSystem: K4 kissing-loop RNA reporter
assignedCategory: group 3

sequenceContent: AGAGAUAUAUGAGGAUAUGAGAUAGUUAAUGAGUGAGUUAUAGUGUUGUUUGGUUAGUGAUGUUAUUUAGAAGGCGUGAGUGAUG [immumullin]
targetSystem: K4 kissing-loop RNA reporter
assignedCategory: group 1

sequenceContent: UUGUUUGGUUGAGAGGUUGGGCGAGAUGAUACCAGUAGAGAAGAGUACCCUUGGCAGCAUAGGAGAGAUAUAGUGAUGUUGUAUG [SSTheophA.S]
targetSystem: K4 kissing-loop RNA reporter
assignedCategory: group 1

sequenceContent: AAUUCUCUUUUUGAUACCAGCGAAUCUGAGUGAUGUUCUAAGCCAUACAAUUGAGUAAAUCGCCCUUGGCAGCAAUUCGUGGGUG [theeternabot_exclusion_KL_Theo_B_20]
targetSystem: K4 kissing-loop RNA reporter;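 further: bound reporter read as fluorescence of individual clusters on recovered sequencing chips by microscopy, with normalized cluster intensities fitted with a binding model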
assignedCategory: group 3

Problem: Sort UUAGAGAUCUCAGGAUAUCAGUGAUGUUGGUAUCAAGAUCUGAGAUAGAAUUCUAUCUCAGAUCAAUGAGAAGGGAGAUCUCAUU [AK3.3 Exc FMN B] into one of the categories.
Result: group 2

Problem: Sort GCCGUAGAUGGAAGGAGCGACUUCAGCGGAUAAACGUGACAAUUGGAGUGAUGUUCGCAAGGUCAGGUAGGUCGCCAUCUACGGC into one of the categories.
Result: group 3

Problem: Sort UGUACUCUGAAAGGAUAUGUGAGCCCUUUUUGUUAGUGAUGUUGACACGGAAACACCAUCAGACUUACAGAAGGUUCGUUGGGUA [theeternabot_sameState_KL_FMN_B_17] into one of the categories.
Result: group 2

Problem: Sort AGGAGCGUGGGAUGAAAAUCGCACGCUCCUCGAGGACCGGUACGGCCGCCACUCGCUCGCGCCGAGUGAUGUUCGGCCGGCGAAC [#2 Same State - Tryptophan A Attempt #12 (HarryS)] into one of the categories.
Result: group 1

Problem: Sort AUUAUAUAAUGGAGUGAUGUUCCAUCAGAUACCAGUGAAUUUGAACACCCUUGGCAGCUGUUGUUCAAAUAAUUUAAAUCCUUUA [JR_SSTheophyA_Sub019] into one of the categories.
Result: group 1

Problem: Sort CCAUUCUUUUACGAUACCAGUUUAAUAUAUUUAAUCAAAACCCUCGCCGAGUGAUGUUCGGACCCUUGGCAGCGUUUGCGAGAGG [bjnbstkmullin] into one of the categories.
Result: group 2
